Listed below: pIC50 values for each entry.
- Tested On: BRD4-2 (Homo sapiens, UniProt O60885)
- Construct: made in house; host or cells: Escherichia coli
- Experiment: HTRF (TR-FRET) assay, BRD4-2 binding to acetylated histone H4 peptide
- Assay Setup: 120 nM BRD4-2, 200 nM H4 peptide, 60 minutes at 25° C.; geometric mean of a minimum of four determinations; read-out: HTRF BRD4-2 (IC50)
Just the number, please; pIC50 means minus log10 of the concentration in mol/L.

CSc1nc2c(S(=O)(=O)NC3CCCC3)cc(-c3c(C)noc3C)cc2[nH]1 [Compound 1020-4] | 6.64
Cc1ccc2ncccc2c1-c1cc(-c2c(C)noc2C)cc2[nH]c(C(O)CCO)nc12 (stereo not shown) [Compound 1020-89] | 6.82
COc1nc2c(-c3c(C)ccc4ncccc34)cc(-c3c(C)noc3C)cc2[nH]1 [Compound 1020-90] | 6.92
Cc1n[nH]c(C)c1-c1cc(-c2c(C)noc2C)cc2[nH]c(NC3CC3)nc12 [Compound 1020-81] | 6.93
Cc1noc(C)c1-c1cc(S(=O)(=O)NC2CCCC2)c2nc([S+](C)[O-])[nH]c2c1 (stereo not shown) [Compound 1020-5] | 6.45
Cc1noc(C)c1-c1cc(-c2cccnc2-c2ccccc2)c2nc(C3CC3)[nH]c2c1 [Compound 1020-19] | 6.77

Request: For the record Cc1n[nH]c(C)c1-c1cc(-c2c(C)noc2C)cc2[nH]c(NCC3CC3)nc12 [Compound 1020-79] , what value of pIC50 is listed for BRD4-2 (Homo sapiens, UniProt O60885)?
Response: 7.06

Request: For the record Cc1ccc2ncccc2c1-c1cc(-c2c(C)noc2C)cc2[nH]c(C(F)(F)F)nc12 [Compound 1020-92] , what value of pIC50 is listed for BRD4-2 (Homo sapiens, UniProt O60885)?
Response: 6.99

Request: For the record CCC(O)(CC)c1cc(-c2c(C)noc2C)cc2c1nc(C1CC1)n2C [Compound 1020-132] , what value of pIC50 is listed for BRD4-2 (Homo sapiens, UniProt O60885)?
Response: 6.05

Request: For the record Cc1noc(C)c1-c1cc(S(=O)(=O)NC2CCCC2)c2nc(NCC(F)(F)F)[nH]c2c1 [Compound 1020-148] , what value of pIC50 is listed for BRD4-2 (Homo sapiens, UniProt O60885)?
Response: 6.74

Request: For the record Cc1nc2cc(-c3c(C)noc3C)cc(-c3c(C)n[nH]c3C)c2[nH]1 [Compound 1020-77] , what value of pIC50 is listed for BRD4-2 (Homo sapiens, UniProt O60885)?
Response: 7.19
